Tested on: Chenopodium album (CHEAL)
Assay: Post-emergence glasshouse herbicide test, visual phytotoxicity
Type: in vivo
Details: 0.625 g/ha, 13 days
If the reported percentage phytotoxicity CHEAL equals or exceeds 80%, assign Condition met. If not, assign Condition not met.

Answered examples (3):
Cc1ccc2ccc(C)c(C3C(=O)C(Cl)=NN(C)C3=O)c2c1 (centres unmarked) [A-I] | Condition not met
Nc1c(F)c(-c2ccc3cc[nH]c3c2F)nc(C(=O)O)c1Cl [B-VI] | Condition not met
CS(=O)(=O)c1ccc(C(=O)C2C(=O)CCCC2=O)c(Cl)c1OCCC1OCCO1 [B-II] | Condition not met

Field: next molecule
INPUT: Quick check, percentage phytotoxicity CHEAL >= 80%? COc1c(Cl)ccc(-c2nc(C(=O)OCc3ccccc3)c(Cl)c(N)c2F)c1F [B-I]
OUTPUT: Condition met

---

Test system: Chenopodium album (CHEAL)
Test: Post-emergence glasshouse herbicide test, visual phytotoxicity
Format: in vivo
Conditions: 1.25 g/ha, 13 days
From the text: Seeds of Setaria faberi (SETFA), Echinochloa crus-galli (ECHCG), Digitaria sanguinalis (DIGSA), Lolium perenne (LOLPE), Alopecurus myosuroides (ALOMY), Chenopodium album (CHEAL), Ipomoea hederacea (IPOHE), Stellaria media (STEME), Abutilon threophrasti (ABUTH) and Amaranthus retroflexus (AMARE) were sown in standard sterilised soil in pots. […]
Exercise: for every item that follows, state its recorded percentage phytotoxicity CHEAL.
Numbers only, in %.

Recorded percentage phytotoxicity CHEAL, per entry:
COc1c(Cl)ccc(-c2nc(C(=O)OCc3ccccc3)c(Cl)c(N)c2F)c1F | 73
CCOC(=O)COc1ncccc1Oc1cc(-n2c(=O)cc(C(F)(F)F)n(C)c2=O)c(F)cc1Cl | 95
CS(=O)(=O)c1ccc(C(=O)C2C(=O)CCCC2=O)c(Cl)c1OCCC1OCCO1 | 15

Here's the next entry for you.
INPUT: Kindly state the measured percentage phytotoxicity CHEAL obtained for Nc1c(F)c(-c2ccc3cc[nH]c3c2F)nc(C(=O)O)c1Cl with Chenopodium album (CHEAL).
OUTPUT: 80

---

Tested on: Digitaria sanguinalis (DIGSA)
Experiment: Post-emergence glasshouse herbicide test, visual phytotoxicity
Assay type: in vivo
Conditions: 1.25 g/ha, 13 days
Exercise: for every item that follows, state its recorded percentage phytotoxicity DIGSA.
Numbers only, in %.

Recorded percentage phytotoxicity DIGSA, per entry:
COc1c(Cl)ccc(-c2nc(C(=O)OCc3ccccc3)c(Cl)c(N)c2F)c1F [B-I] | 8
CCOC(=O)COc1ncccc1Oc1cc(-n2c(=O)cc(C(F)(F)F)n(C)c2=O)c(F)cc1Cl [B-V] | 68
Cc1ccc2ccc(C)c(C3C(=O)C(Cl)=NN(C)C3=O)c2c1 (centres unmarked) [A-I] | 0
Nc1c(F)c(-c2ccc3cc[nH]c3c2F)nc(C(=O)O)c1Cl [B-VI] | 0

Here's the next entry for you.
INPUT: Kindly state the measured percentage phytotoxicity DIGSA obtained for CS(=O)(=O)c1ccc(C(=O)C2C(=O)CCCC2=O)c(Cl)c1OCCC1OCCO1 [B-II] with Digitaria sanguinalis (DIGSA).
OUTPUT: 5

---

System: Digitaria sanguinalis (DIGSA)
Test: Post-emergence glasshouse herbicide test, visual phytotoxicity
Assay type: in vivo
Details: 0.625 g/ha, 13 days
Description: Seeds of Setaria faberi (SETFA), Echinochloa crus-galli (ECHCG), Digitaria sanguinalis (DIGSA), Lolium perenne (LOLPE), Alopecurus myosuroides (ALOMY), Chenopodium album (CHEAL), Ipomoea hederacea (IPOHE), Stellaria media (STEME), Abutilon threophrasti (ABUTH) and Amaranthus retroflexus (AMARE) were sown in standard sterilised soil in pots. […]
observation.type: percentage phytotoxicity DIGSA
I'd appreciate it if you included the unit after the number.

CS(=O)(=O)c1ccc(C(=O)C2C(=O)CCCC2=O)c(Cl)c1OCCC1OCCO1 | 0%
COc1c(Cl)ccc(-c2nc(C(=O)OCc3ccccc3)c(Cl)c(N)c2F)c1F | 0%

Each compound below has a recorded value; state its percentage phytotoxicity DIGSA.
1. CCOC(=O)COc1ncccc1Oc1cc(-n2c(=O)cc(C(F)(F)F)n(C)c2=O)c(F)cc1Cl
2. Nc1c(F)c(-c2ccc3cc[nH]c3c2F)nc(C(=O)O)c1Cl

OUTPUT:
50%
0%

---

System: Alopecurus myosuroides (ALOMY)
Assay: Post-emergence glasshouse herbicide test, visual phytotoxicity
Format: in vivo
Details: 10 g/ha, 13 days
From the text: Seeds of Setaria faberi (SETFA), Echinochloa crus-galli (ECHCG), Digitaria sanguinalis (DIGSA), Lolium perenne (LOLPE), Alopecurus myosuroides (ALOMY), Chenopodium album (CHEAL), Ipomoea hederacea (IPOHE), Stellaria media (STEME), Abutilon threophrasti (ABUTH) and Amaranthus retroflexus (AMARE) were sown in standard sterilised soil in pots. […]
observation.type: percentage phytotoxicity ALOMY (%)
Numbers only, in %.

Recorded percentage phytotoxicity ALOMY, per entry:
COc1c(Cl)ccc(-c2nc(C(=O)OCc3ccccc3)c(Cl)c(N)c2F)c1F [B-I] | 5
Cc1ccc2ccc(C)c(C3C(=O)C(Cl)=NN(C)C3=O)c2c1 (stereo not shown) [A-I] | 21
Nc1c(F)c(-c2ccc3cc[nH]c3c2F)nc(C(=O)O)c1Cl [B-VI] | 25

INPUT: For CS(=O)(=O)c1ccc(C(=O)C2C(=O)CCCC2=O)c(Cl)c1OCCC1OCCO1 [B-II] , what is its reported percentage phytotoxicity ALOMY?
OUTPUT: 0

---

Test system: Echinochloa crus-galli (ECHCG)
Experiment: Post-emergence glasshouse herbicide test, visual phytotoxicity
Assay type: in vivo
Settings: 2.5 g/ha, 13 days
observation.type: percentage phytotoxicity ECHCG (%)
Give bare numbers, in %.

COc1c(Cl)ccc(-c2nc(C(=O)OCc3ccccc3)c(Cl)c(N)c2F)c1F | 0
Nc1c(F)c(-c2ccc3cc[nH]c3c2F)nc(C(=O)O)c1Cl | 25
Cc1ccc2ccc(C)c(C3C(=O)C(Cl)=NN(C)C3=O)c2c1 (stereo not shown) | 8

Here's the next entry for you.
INPUT: For CS(=O)(=O)c1ccc(C(=O)C2C(=O)CCCC2=O)c(Cl)c1OCCC1OCCO1 , what is its reported percentage phytotoxicity ECHCG?
OUTPUT: 0

---

Test system: Abutilon threophrasti (ABUTH)
Experiment: Post-emergence glasshouse herbicide test, visual phytotoxicity
Format: in vivo
Conditions: 2.5 g/ha, 13 days
observation.type: percentage phytotoxicity ABUTH (%)
Numbers only, in %.

Recorded percentage phytotoxicity ABUTH, per entry:
CS(=O)(=O)c1ccc(C(=O)C2C(=O)CCCC2=O)c(Cl)c1OCCC1OCCO1 | 43
COc1c(Cl)ccc(-c2nc(C(=O)OCc3ccccc3)c(Cl)c(N)c2F)c1F | 83
Cc1ccc2ccc(C)c(C3C(=O)C(Cl)=NN(C)C3=O)c2c1 (stereo not shown) | 21

Here's the next entry for you.
INPUT: For Nc1c(F)c(-c2ccc3cc[nH]c3c2F)nc(C(=O)O)c1Cl , what is its reported percentage phytotoxicity ABUTH?
OUTPUT: 78

---

Test system: Amaranthus retroflexus (AMARE)
Test: Post-emergence glasshouse herbicide test, visual phytotoxicity
Format: in vivo
Settings: 5 g/ha, 13 days
Exercise: for every item that follows, state its recorded percentage phytotoxicity AMARE.
Answers are plain numbers, in %.

Recorded percentage phytotoxicity AMARE, per entry:
Cc1ccc2ccc(C)c(C3C(=O)C(Cl)=NN(C)C3=O)c2c1 (stereo not shown) | 74
COc1c(Cl)ccc(-c2nc(C(=O)OCc3ccccc3)c(Cl)c(N)c2F)c1F | 80
Nc1c(F)c(-c2ccc3cc[nH]c3c2F)nc(C(=O)O)c1Cl | 98

Here's the next entry for you.
INPUT: For CS(=O)(=O)c1ccc(C(=O)C2C(=O)CCCC2=O)c(Cl)c1OCCC1OCCO1 , what is its reported percentage phytotoxicity AMARE?
OUTPUT: 53

---

Tested on: Ipomoea hederacea (IPOHE)
Experiment: Post-emergence glasshouse herbicide test, visual phytotoxicity
Type: in vivo
Conditions: 1.25 g/ha, 13 days
Exercise: for every item that follows, state its recorded percentage phytotoxicity IPOHE.
Numbers only, in %.

Nc1c(F)c(-c2ccc3cc[nH]c3c2F)nc(C(=O)O)c1Cl | 35

Each molecule below has a recorded value; state its percentage phytotoxicity IPOHE.
1. COc1c(Cl)ccc(-c2nc(C(=O)OCc3ccccc3)c(Cl)c(N)c2F)c1F
2. CCOC(=O)COc1ncccc1Oc1cc(-n2c(=O)cc(C(F)(F)F)n(C)c2=O)c(F)cc1Cl

OUTPUT:
1: 58; 2: 88

INPUT: Kindly state the measured percentage phytotoxicity IPOHE obtained for CS(=O)(=O)c1ccc(C(=O)C2C(=O)CCCC2=O)c(Cl)c1OCCC1OCCO1 with Ipomoea hederacea (IPOHE).
OUTPUT: 15

---

Test system: Amaranthus retroflexus (AMARE)
Experiment: Post-emergence glasshouse herbicide test, visual phytotoxicity
Assay type: in vivo
Conditions: 1.25 g/ha, 13 days
Hi! Just check whether percentage phytotoxicity AMARE is below 70%. Below gives T, equal or above gives F.

Answered examples (3):
Cc1ccc2ccc(C)c(C3C(=O)C(Cl)=NN(C)C3=O)c2c1 (centres unmarked) [A-I] | T
CCOC(=O)COc1ncccc1Oc1cc(-n2c(=O)cc(C(F)(F)F)n(C)c2=O)c(F)cc1Cl [B-V] | F
CS(=O)(=O)c1ccc(C(=O)C2C(=O)CCCC2=O)c(Cl)c1OCCC1OCCO1 [B-II] | T

Field: next molecule
INPUT: Lab note: percentage phytotoxicity AMARE threshold 70%. Does this molecule come in strictly under it? Nc1c(F)c(-c2ccc3cc[nH]c3c2F)nc(C(=O)O)c1Cl [B-VI]
OUTPUT: F
